test target: Sigma non-opioid intracellular receptor 1 (Rattus norvegicus, UniProt Q9R0C9)
Sequence (Q9R0C9 whole entry): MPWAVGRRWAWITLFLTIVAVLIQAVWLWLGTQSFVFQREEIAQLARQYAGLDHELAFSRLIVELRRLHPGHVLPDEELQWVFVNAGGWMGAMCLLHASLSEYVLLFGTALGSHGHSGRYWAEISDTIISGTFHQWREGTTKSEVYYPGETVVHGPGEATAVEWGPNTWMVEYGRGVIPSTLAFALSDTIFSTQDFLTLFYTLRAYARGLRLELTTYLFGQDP
assay overview: Displacement of [3H](+)-pentazocine from sigma-1 receptor in rat liver homogenate
assay endpoint: IC50 (nM)
Numeric answer only, unit nM assumed.

[
  {
    "molecule": "c1ccc(CNC23OC4C5C6CC(C7C6C4C72)C53)cc1 (configuration not stated)",
    "IC50 [nM]": 1780
  }
]

API: the following record is the query input.
Record lookup: for Sigma non-opioid intracellular receptor 1 (Rattus norvegicus, UniProt Q9R0C9), what IC50 belongs to c1ccc(CCNC23OC4C5C6CC(C7C6C4C72)C53)cc1 (configuration not stated) ?
1540

* * *

test target: Sigma non-opioid intracellular receptor 1 (Cavia porcellus, UniProt Q60492)
Sequence (Q60492 whole entry): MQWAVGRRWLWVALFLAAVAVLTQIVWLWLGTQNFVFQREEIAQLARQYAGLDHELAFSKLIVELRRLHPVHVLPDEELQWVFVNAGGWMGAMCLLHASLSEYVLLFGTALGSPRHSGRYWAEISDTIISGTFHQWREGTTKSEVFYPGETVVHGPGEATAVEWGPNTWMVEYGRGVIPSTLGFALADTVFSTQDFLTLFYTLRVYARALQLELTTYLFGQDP
assay overview: Displacement of [3H](+)-pentazocine from sigma-1 receptor in guinea pig brain
assay endpoint: log10 Ki (log10 of the value in nM)
# values: log10(Ki), units nM

Some solved entries appear below for comparison.
[
  {
    "compound": "OC12C3C4CC5C6C4C1C6C(C53)N2Cc1ccc(F)cc1 (stereo unspecified)",
    "log10 Ki": 2.03
  },
  {
    "compound": "OC12C3C4CC5C6C4C1C6C(C53)N2Cc1cccc(Cl)c1 (stereo unspecified)",
    "log10 Ki": 2.27
  },
  {
    "compound": "OC12C3C4CC5C6C4C1C6C(C53)N2CCc1cccc(F)c1 (stereo unspecified)",
    "log10 Ki": 1.00
  },
  {
    "compound": "O=[N+]([O-])c1cccc(CN2C3C4C5CC6C7C5C3C7C2(O)C64)c1 (stereo unspecified)",
    "log10 Ki": 3.04
  },
  {
    "compound": "Cc1cccc(CN2C3C4C5CC6C7C5C3C7C2(O)C64)c1 (stereo unspecified)",
    "log10 Ki": 1.99
  }
]

I have this compound here, OC12C3C4CC5C6C4C1C6C(C53)N2Cc1ccccc1F (stereo unspecified) , and I need its recorded log10 Ki.
2.26

I have this compound here, OC12C3C4CC5C6C4C1C6C(C53)N2Cc1cccc(F)c1 (stereo unspecified) , and I need its recorded log10 Ki.
2.18

I have this compound here, OC12C3C4CC5C6C4C1C6C(C53)N2Cc1cccc(I)c1 (stereo unspecified) , and I need its recorded log10 Ki.
2.23

I have this compound here, OC12C3C4CC5C6C4C1C6C(C53)N2CCCc1ccccc1 (stereo unspecified) , and I need its recorded log10 Ki.
1.32

I have this compound here, OC12C3C4CC5C6C4C1C6C(C53)N2Cc1ccc(Br)cc1 (stereo unspecified) , and I need its recorded log10 Ki.
1.93

I have this compound here, OC12C3C4CC5C6C4C1C6C(C53)N2Cc1ccc(F)c(F)c1 (stereo unspecified) , and I need its recorded log10 Ki.
2.30

I have this compound here, OC12C3C4CC5C6C4C1C6C(C53)N2CCc1ccccc1 (stereo unspecified) , and I need its recorded log10 Ki.
1.30

* * *

Below, each of the compounds is paired with its reported log10(Ki) value.
test target: Sigma non-opioid intracellular receptor 1 (Cavia porcellus)
assay overview: Displacement of [3H](+)-pentazocine from sigma-1 receptor in guinea pig brain
# values: log10(Ki), units nM

Some solved entries appear below for comparison.
[
  {
    "compound": "OC12C3C4CC5C6C4C1C6C(C53)N2Cc1ccccc1 (centres undefined)",
    "test target": "Sigma non-opioid intracellular receptor 1 (Cavia porcellus)",
    "reported value": 2.01
  },
  {
    "compound": "COc1ccc(CN2C3C4C5CC6C7C5C3C7C2(O)C64)cc1 (centres undefined)",
    "test target": "Sigma non-opioid intracellular receptor 1 (Cavia porcellus)",
    "reported value": 2.01
  }
]

I have this compound here, OC12C3C4CC5C6C4C1C6C(C53)N2CCc1cccc(Cl)c1 (centres undefined) , and I need its recorded log10(Ki).
1.32
